biological target: peripheral receptors for benzodiazepines ([^3 H]-PK 11195) (Rattus norvegicus);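 also: radioligand binding with bound label split from free by vacuum filtration, then quantified through liquid scintillation counting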
Below, each of the molecules is paired with its reported IC50 value.
The figure you give is taken to be in µM; do not add the unit.

Guide cases for IC50, answers given:
INSERT INTO results (molecule, target_under_test, value_observed) VALUES
  ('OCCN(CCO)c1nc(N2CCCCC2)c2nc(N(CCO)CCO)nc(N3CCCCC3)c2n1 [Dipyridamole, dipyridamole, reference compound]', 'peripheral receptors for benzodiazepines ([^3 H]-PK 11195) (Rattus norvegicus)', 0.3),
  ('CCN(CC)C(=O)Cn1c(=O)n2cc(-c3ccsc3)nc2c2ccccc21 [Example 22]', 'peripheral receptors for benzodiazepines ([^3 H]-PK 11195) (Rattus norvegicus)', 0.2);

Switching to the query record.
peripheral receptors for benzodiazepines ([^3 H]-PK 11195) (Rattus norvegicus) IC50 of CCN(CC)C(=O)Cn1c(=O)n2cc(C(N)=O)nc2c2ccccc21 [Example 4] is 8
